pIC50: −log10 of the molar value.
Endpoint summary: pIC50, system: UniProt:Q13133, multiple sources combined.

{"SUBSTANCE SMILES": "CC(C)CN(Cc1ccc(-c2cccc(S(C)(=O)=O)c2)s1)S(=O)(=O)C(F)(F)F", "TARGET": "UniProt:Q13133", "pIC50": 5.43}
{"SUBSTANCE SMILES": "NS(=O)(=O)c1cccc(Oc2ccc(Cl)c(-c3ncnc4c(Cl)cccc34)c2)c1", "TARGET": "UniProt:Q13133", "pIC50": 5.77}
{"SUBSTANCE SMILES": "CCS(=O)(=O)c1cccc(Oc2ccc(-n3cnc4c(C(F)(F)F)cccc43)c(Cl)c2)c1", "TARGET": "UniProt:Q13133", "pIC50": 5.57}
{"SUBSTANCE SMILES": "Cc1ccc(OCc2cccc(-c3c(Cc4ccccc4)cnc4c(C(F)(F)F)cccc34)c2)c(C(=O)O)c1", "TARGET": "UniProt:Q13133", "pIC50": 5.32}
{"SUBSTANCE SMILES": "Cc1ccc(C(=O)O)c(NCc2cccc(-c3c(Cc4ccccc4)cnc4c(C(F)(F)F)cccc34)c2)c1", "TARGET": "UniProt:Q13133", "pIC50": 5.89}
{"SUBSTANCE SMILES": "CS(=O)(=O)CCCS(=O)(=O)c1cccc(Oc2ccc(F)c(-c3ncnc4c(C(F)(F)F)cccc34)c2)c1", "TARGET": "UniProt:Q13133", "pIC50": 6.18}
{"SUBSTANCE SMILES": "CS(=O)(=O)c1cc(Oc2ccc(Cl)c(-c3ncnc4c(C(F)(F)F)cccc34)c2)ccc1C#N", "TARGET": "UniProt:Q13133", "pIC50": 5.97}
